Origin of measurements: the supplement of paper PMC10307832

Tested on: NCI-H1666
Assay: relative viability (nuclei count vs DMSO), 5 days (fraction); higher = more cells survive
Conditions: first compound 0.5 µM
Would you kindly list relative viability for each of these compounds?
Give bare numbers.

A selection of reference data follows.
{"compound": "Nc1ccn([C@@H]2O[C@H](CO)[C@@H](O)[C@@H]2O)c(=O)n1 [Cytarabine] + Cc1nc(Nc2ncc(C(=O)Nc3c(C)cccc3Cl)s2)cc(N2CCN(CCO)CC2)n1 [Dasatinib] (partner 0.075 µM)", "relative viability": 0.394}
{"compound": "COc1cc2nccc(Oc3ccc(NC(=O)Nc4cc(C)on4)c(Cl)c3)c2cc1OC [Tivozanib] + COc1cc2c(Oc3ccc(NC(=O)C4(C(=O)Nc5ccc(F)cc5)CC4)cc3F)ccnc2cc1OCCCN1CCOCC1 [Foretinib] (partner 0.25 µM)", "relative viability": 0.999}
{"compound": "Nc1ccn([C@@H]2O[C@H](CO)[C@@H](O)[C@@H]2O)c(=O)n1 [Cytarabine] + O=C(c1cc(Cc2n[nH]c(=O)c3ccccc23)ccc1F)N1CCN(C(=O)C2CC2)CC1 [Olaparib] (partner 8 µM)", "relative viability": 0.684}
{"compound": "COc1cc2nccc(Oc3ccc(NC(=O)Nc4cc(C)on4)c(Cl)c3)c2cc1OC [Tivozanib] + O=C(CCCCCCC(=O)Nc1ccccc1)NO [Vorinostat] (partner 1 µM)", "relative viability": 0.978}
{"compound": "Nc1ccn([C@@H]2O[C@H](CO)[C@@H](O)[C@@H]2O)c(=O)n1 [Cytarabine] + Cc1nc(NC(=O)N2CCC[C@H]2C(N)=O)sc1-c1ccnc(C(C)(C)C(F)(F)F)c1 [Alpelisib] (partner 2 µM)", "relative viability": 0.35}

Read the next record carefully.
Reported relative viability of COc1cc2nccc(Oc3ccc(NC(=O)Nc4cc(C)on4)c(Cl)c3)c2cc1OC [Tivozanib] + CC(=O)Nc1cccc(-n2c(=O)n(C3CC3)c(=O)c3c(Nc4ccc(I)cc4F)n(C)c(=O)c(C)c32)c1 [Trametinib] (partner 0.02 µM) : 0.862

* * *

Would you kindly list relative viability for each of these compounds?
System: NCI-H2126
Assay: relative viability (nuclei count vs DMSO), 5 days (fraction); higher = more cells survive
Details: first compound 0.05 µM
Answers are plain numbers.

{"compound": "COc1cc2nccc(Oc3ccc(NC(=O)Nc4cc(C)on4)c(Cl)c3)c2cc1OC [Tivozanib] + Cc1nc(NC(=O)N2CCC[C@H]2C(N)=O)sc1-c1ccnc(C(C)(C)C(F)(F)F)c1 [Alpelisib] (partner 2 µM)", "system_under_test": "NCI-H2126", "relative viability": 0.763}
{"compound": "Nc1ccn([C@@H]2O[C@H](CO)[C@@H](O)[C@@H]2O)c(=O)n1 [Cytarabine] + Cc1cc(Nc2cc(N3CCN(C)CC3)nc(Sc3ccc(NC(=O)C4CC4)cc3)n2)n[nH]1 [Tozasertib] (partner 0.1 µM)", "system_under_test": "NCI-H2126", "relative viability": 0.607}
{"compound": "Nc1ccn([C@@H]2O[C@H](CO)[C@@H](O)[C@@H]2O)c(=O)n1 [Cytarabine] + CC(C)C[C@H](NC(=O)[C@H](Cc1ccccc1)NC(=O)c1cnccn1)B(O)O [Bortezomib] (partner 0.002 µM)", "system_under_test": "NCI-H2126", "relative viability": 1.09}
{"compound": "Nc1ccn([C@@H]2O[C@H](CO)[C@@H](O)[C@@H]2O)c(=O)n1 [Cytarabine] + Nc1ncn([C@H]2C[C@H](O)[C@@H](CO)O2)c(=O)n1 [Decitabine] (partner 2 µM)", "system_under_test": "NCI-H2126", "relative viability": 0.514}

Read the next record carefully.
Reported relative viability of COc1cc2nccc(Oc3ccc(NC(=O)Nc4cc(C)on4)c(Cl)c3)c2cc1OC [Tivozanib] + COc1cccc2cc(-c3nc([C@H]4CC[C@H](C(=O)O)CC4)n4ncnc(N)c34)[nH]c12 [OSI-027] (partner 0.5 µM) : 0.776
